Reported TGI values for a set of compounds
Test system: HCT-15 colon
Experiment: NCI tumour cell line growth inhibition, 48 h
PARAMETER: TGI

>>> result("CC1(C)C2C=CC1(C)C1(CC2)OCCO1 (configuration not stated)")
"> 100 µM"
>>> result("CC1=C2C(=CC(C)(C)C2O)C(=O)C(C)(O)C12CC2 (configuration not stated)")
"0.151 µM"
>>> result("OC(CCNCc1ccccc1)c1ccc2ccccc2c1 (configuration not stated)")
"38.8 µM"
>>> result("COC(=O)c1c(O)ccc2c1c1c(n2Cc2cccc(C)c2)C(=O)c2ccccc2C1=O")
"24.2 µM"
>>> result("Nc1ncnc2c1nnn2C1CCC(CP(=O)(O)O)C1 (configuration not stated)")
"> 100 µM"
>>> result("O=c1[nH]nc(-c2ccccc2)n1/N=C/c1cccnc1")
"> 100 µM"
>>> result("Cc1cc(Cl)ccc1NC(=O)CC/C(CC(=O)C(C)C)=N\\NC(=O)C[n+]1ccccc1")
"> 100 µM"
>>> result("O=c1nc2oc3ccc4ccccc4c3cc-2s1")
"> 100 µM"
>>> result("COC(=O)CCC(NC(=S)N/N=C/c1ccco1)C(=O)OC (configuration not stated)")
"> 100 µM"
>>> result("C=C(C)C(O)C(O)c1c(OC)ccc2ccc(=O)oc12 (configuration not stated)")
"> 100 µM"
>>> result("CC1(C)[C@@H](OC(N)=O)[C@H]2O[C@H]2[C@]2(CO)[C@H]3CC[C@]4(C)[C@@H](c5ccc(=O)oc5)[C@@H](Cl)C[C@]4(O)C3=CC[C@@H]12")
"0.0304 µM"
>>> result("CC(=O)Oc1c2oc3ccc(Cl)cc3c(=O)c2c(O)c2ccsc12")
"> 100 µM"
>>> result("CCOC(=O)NC(=O)c1cn(CCN2CCN(c3ncnc4nc[nH]c34)CC2)c(=O)[nH]c1=O")
"> 100 µM"
>>> result("COc1ccc(C(=O)/C=C/c2c(Cl)c3c(c(OC)c2Cl)OCC(=O)N3)cc1")
"6.14 µM"
>>> result("O=C(Nc1ccccc1)N(CCCCN(Cc1ccccc1)C(=O)Nc1ccccc1)Cc1ccccc1")
"> 100 µM"
>>> result("COc1ccc(C)cc1Nc1nnc(-c2ccccc2N)s1")
"> 100 µM"
>>> result("COc1ccc(-c2cc(-c3ccc(Nc4ccnc5cc(Cl)ccc45)cc3)[nH]c(=O)c2C#N)c2ccccc12")
"> 100 µM"
>>> result("COc1cc(/C=C2/C[C@H]3[C@@H]4CC=C5C[C@@H](OC(C)=O)CC[C@]5(C)[C@H]4CC[C@]3(C)NC2=O)cc(OC)c1OC")
"> 100 µM"
>>> result("O=c1ccn(CC2(CO)CC(Cc3ccccc3)C2)c(=O)[nH]1 (configuration not stated)")
"> 100 µM"
>>> result("COc1cc(C2c3cc4c(cc3OC(NNC(N)=O)C2C)OCO4)cc(OC)c1O (configuration not stated)")
"> 100 µM"
>>> result("COc1ccc(-c2cc(-c3cc4cc(Br)ccc4nc3Cl)c(C#N)c(N)n2)cc1")
"> 12.5 µM"
>>> result("CCOC(=O)NC(=O)c1cn(CCCCCCOC(=O)NCCCCCCNC(=O)OCCCCCCn2cc(C(=O)NC(=O)OCC)c(=O)[nH]c2=O)c(=O)[nH]c1=O")
"> 100 µM"
